system.under.test: TBK1 (Homo sapiens (Human), UniProt Q9UHD2)
Sequence (Q9UHD2 whole entry): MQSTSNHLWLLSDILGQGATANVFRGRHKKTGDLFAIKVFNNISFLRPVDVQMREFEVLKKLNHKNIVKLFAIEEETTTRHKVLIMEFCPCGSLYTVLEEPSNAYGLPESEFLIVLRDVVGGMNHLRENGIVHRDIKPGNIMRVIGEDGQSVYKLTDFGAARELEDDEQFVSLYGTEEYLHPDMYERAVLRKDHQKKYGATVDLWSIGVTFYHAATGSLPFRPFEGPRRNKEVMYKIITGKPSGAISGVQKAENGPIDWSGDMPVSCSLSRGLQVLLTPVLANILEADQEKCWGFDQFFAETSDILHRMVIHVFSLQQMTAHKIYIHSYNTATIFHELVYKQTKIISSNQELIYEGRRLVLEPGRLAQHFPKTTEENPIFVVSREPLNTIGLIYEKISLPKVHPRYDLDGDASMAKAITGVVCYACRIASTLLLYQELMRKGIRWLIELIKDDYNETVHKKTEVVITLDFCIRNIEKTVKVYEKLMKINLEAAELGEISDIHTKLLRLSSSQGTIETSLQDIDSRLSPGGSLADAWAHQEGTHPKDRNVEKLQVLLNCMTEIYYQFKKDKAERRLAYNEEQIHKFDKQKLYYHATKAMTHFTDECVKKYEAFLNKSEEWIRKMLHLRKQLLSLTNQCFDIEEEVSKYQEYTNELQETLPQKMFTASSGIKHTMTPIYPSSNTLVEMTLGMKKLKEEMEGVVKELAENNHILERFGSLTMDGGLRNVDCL
experiment.description: Lanthascreen TR-FRET kinase inhibition assay, TBK1
Type: biochemical
experimental.conditions: 20 μM ATP (apparent Km), 8 nM kinase, 2.5 h
In this section we review reported IC50 values for a set of compounds.

Consider the reported IC50 for these compounds:
| compound | system.under.test | IC50 |
| --- | --- | --- |
| COCCNCc1cncc(Nc2nccc(-c3cnc(N4CC[C@H](F)C4)c(C#N)c3)n2)c1 | TBK1 (Homo sapiens (Human), UniProt Q9UHD2) | < 0.1 µM |
| N#Cc1cc(-c2ccnc(Nc3ccc(CN4CCOCC4)nc3)n2)cnc1N1CCC(CC(N)=O)C1 (centres unmarked) | TBK1 (Homo sapiens (Human), UniProt Q9UHD2) | < 0.1 µM |
| N#Cc1cc(-c2ccnc(Nc3ccc(CN4CC[C@H](F)C4)nc3)n2)cnc1N1CC[C@H](F)C1 | TBK1 (Homo sapiens (Human), UniProt Q9UHD2) | < 0.03 µM |
| CS(=O)(=O)CCNCc1ccc(Nc2nccc(-c3cnc(N4CC[C@H](F)C4)c(C#N)c3)n2)cn1 | TBK1 (Homo sapiens (Human), UniProt Q9UHD2) | < 0.03 µM |
| N#Cc1cc(-c2ccnc(Nc3ccc(C(N)=O)cc3)n2)cnc1N1CCCC1 | TBK1 (Homo sapiens (Human), UniProt Q9UHD2) | < 0.015 µM |

The compound identified as CC(C)(O)CNc1ccc(Nc2nccc(-c3cnc(N4CC[C@H](F)C4)c(C#N)c3)n2)cn1 registered its IC50 at < 0.03 µM

Field IC50 (entry N#Cc1nc(-c2ccnc(Nc3ccc(CN4CC[C@H](F)C4)nc3)n2)ccc1N1CC[C@H](F)C1 ) reads < 0.015 µM

N#Cc1cc(-c2ccnc(Nc3ccc(CN4CCOCC4)nc3)n2)cnc1N1CCC2(COC2)C1 yielded IC50 of < 0.1 µM

----------
A collection of compounds and their measured pIC50
system.under.test: TBK1 (Homo sapiens (Human), UniProt Q9UHD2)
experiment.description: Lanthascreen TR-FRET kinase inhibition assay, TBK1
Assay type: biochemical
experimental.conditions: 20 μM ATP (apparent Km), 8 nM kinase, 2.5 h
pIC50: −log10 of the molar value.

pIC50 recorded for this compound, N#Cc1cc(-c2ccnc(Nc3ccnc(NC(=O)CN4CCOCC4)c3)n2)cnc1N1CC[C@H](F)C1 , is > 7.52

For Cn1cc(Nc2nccc(-c3cnc(N4CC[C@H](O)C4)c(C#N)c3)n2)cn1 the compound record lists pIC50 as > 7.00

The reported value for N#Cc1cc(-c2ccnc(Nc3cnn(C[C@H](O)CO)c3)n2)cnc1N1CCCC1 in terms of pIC50 is > 7.82

GET /value?item= N#Cc1cc(-c2ccnc(Nc3ccc(CN4CCOCC4)nc3)n2)cnc1N1CCCOCC1 &field=pIC50 returns > 7.00

CC(N)C(=O)Nc1ccc(Nc2nccc(-c3cnc(N4CC[C@H](F)C4)c(C#N)c3)n2)cn1 (stereo partly drawn) yielded pIC50 of > 7.00

For record CN1CCC(NC(=O)c2ccc(Nc3ncc(F)c(-c4cnc(N5CC[C@H](F)C5)c(C#N)c4)n3)cc2)CC1 the listed pIC50 is > 7.82

Summary for this compound, N#Cc1cc(-c2ccnc(Nc3cccc(=O)[nH]3)n2)cnc1N1CC[C@H](F)C1 : pIC50 is > 6.00

Looking up CC(c1ccc(Nc2nccc(-c3cnc(N4CC[C@H](F)C4)c(C#N)c3)n2)cn1)N1CCOCC1 (stereo partly drawn) , I see its pIC50 listed as > 7.82

For record Cn1cc(Nc2nccc(-c3cnc(N[C@@H]4CCOC4)c(C#N)c3)n2)cn1 the listed pIC50 is > 6.00

pIC50 reported for this compound COCCNCc1ccc(Nc2nccc(-c3ccc(N4CC[C@H](F)C4)c(C#N)n3)n2)cn1 : > 7.52

// pIC50 value for N#Cc1cc(-c2ccnc(Nc3ccc(CN4CCOCC4)nc3)n2)cnc1N1CC[C@H](F)C1 : > 7.82

Summary for this compound, CC(C(N)=O)N(C)c1ncc(-c2ccnc(Nc3ccc(CN4CCOCC4)nc3)n2)cc1C#N (stereo not drawn) : pIC50 is > 7.00
